PROTOCOL_NOTES: Tissue distribution of radioactivity after intravenous administration (Table 6)
Format: in vivo, Sprague Dawley rats
STATED_CONDITIONS: liver, rat, i.v., 120 min, mean (range) of 4 rats, read-out: Liver, mean % injected dose/gram
READOUT_LABEL: tissue uptake at 2 h (%ID/g)
Field: numeric (%ID/g). Do not append units.

Request: Assign tissue uptake at 2 h to the following record: "Ic1ccc([C@@H]2CN3CCC[C@@H]3c3ccccc32)cc1"
Response: 1.18

---

PROTOCOL_NOTES: Tissue distribution of radioactivity after intravenous administration (Table 6)
Format: in vivo, Sprague Dawley rats
STATED_CONDITIONS: muscle, rat, i.v., 30 min, mean (range) of 4 rats, read-out: Muscle, mean % injected dose/gram
READOUT_LABEL: tissue uptake at 0.5 h (%ID/g)
Field: numeric (%ID/g). Do not append units.

Request: Assign tissue uptake at 0.5 h to the following record: "Ic1ccc([C@@H]2CN3CCC[C@@H]3c3ccccc32)cc1"
Response: 0.27

---

EXPERIMENTAL_SYSTEM: human serotonin transporter (Homo sapiens, UniProt P31645)
Construct: expressed in transfected cells; host or cells: HEK-293, stably transfected
Sequence (P31645 whole entry): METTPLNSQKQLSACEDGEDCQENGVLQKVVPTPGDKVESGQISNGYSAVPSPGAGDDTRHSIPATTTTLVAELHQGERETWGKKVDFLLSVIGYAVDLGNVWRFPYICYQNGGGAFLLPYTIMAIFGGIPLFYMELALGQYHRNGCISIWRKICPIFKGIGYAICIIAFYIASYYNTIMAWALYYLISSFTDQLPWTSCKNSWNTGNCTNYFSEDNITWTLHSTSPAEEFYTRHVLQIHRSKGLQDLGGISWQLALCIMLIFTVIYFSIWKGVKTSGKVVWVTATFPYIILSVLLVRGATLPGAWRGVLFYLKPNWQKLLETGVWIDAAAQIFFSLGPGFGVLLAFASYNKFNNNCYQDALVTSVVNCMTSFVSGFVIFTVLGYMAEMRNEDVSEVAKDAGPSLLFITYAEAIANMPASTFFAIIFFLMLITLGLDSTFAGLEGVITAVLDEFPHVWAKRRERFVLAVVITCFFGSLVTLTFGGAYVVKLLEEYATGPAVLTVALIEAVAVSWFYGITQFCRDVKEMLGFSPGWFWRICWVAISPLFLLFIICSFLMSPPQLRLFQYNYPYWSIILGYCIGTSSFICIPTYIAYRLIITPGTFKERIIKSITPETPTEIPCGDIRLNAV
PROTOCOL_NOTES: Binding site inhibition in HEK-293 cell membranes transfected with human serotonin transporter ([3H]Citalopram)
STATED_CONDITIONS: HEK-293 cells, human serotonin transporter; vs. [3H]Citalopram; read-out: 5-HT Ki
READOUT_LABEL: Ki

Request: # lookup: human serotonin transporter (Homo sapiens, UniProt P31645) Ki, key = Fc1cccc2c1[C@H]1CCCN1C[C@H]2c1ccc(Br)cc1 (relative stereo) [racemic Br, X = F at position 10]
Response: 1.6 nM

Request: # lookup: human serotonin transporter (Homo sapiens, UniProt P31645) Ki, key = FCC#Cc1ccc([C@@H]2CN3CCC[C@@H]3c3ccccc32)cc1 (relative stereo) [racemic C=CCH2 F]
Response: 8.6 nM

Request: # lookup: human serotonin transporter (Homo sapiens, UniProt P31645) Ki, key = COC(=O)[C@H]1[C@@H](c2ccc(I)cc2)C[C@@H]2CC[C@H]1N2C [RTI-55 (CIT), reference compound]
Response: 0.67 nM

Request: # lookup: human serotonin transporter (Homo sapiens, UniProt P31645) Ki, key = FCCSc1ccc([C@@H]2CN3CCC[C@@H]3c3ccccc32)cc1 (relative stereo) [racemic SCH2 CH2 F]
Response: 5.7 nM

Request: # lookup: human serotonin transporter (Homo sapiens, UniProt P31645) Ki, key = FCCSc1ccc([C@@H]2CN3CCC[C@@H]3c3ccccc32)cc1 (single isomer, unassigned) [95% ee (-) SCH2 CH2 F]
Response: 6.4 nM

Others:
Request: # lookup: human serotonin transporter (Homo sapiens, UniProt P31645) Ki, key = Brc1ccc([C@@H]2CN3CCC[C@@H]3c3ccccc32)cc1 (relative stereo) [racemic Br]
Response: 0.68 nM

Request: # lookup: human serotonin transporter (Homo sapiens, UniProt P31645) Ki, key = FCCc1ccc([C@@H]2CN3CCC[C@@H]3c3ccccc32)cc1 (relative stereo) [racemic CH2 CH2 F]
Response: 13 nM

Request: # lookup: human serotonin transporter (Homo sapiens, UniProt P31645) Ki, key = FCCSc1ccc([C@@H]2CN3CCC[C@@H]3c3ccccc32)cc1 (single isomer, unassigned) [95% ee (+) SCH2 CH2 F]
Response: 2.6 nM

---

PROTOCOL_NOTES: Tissue distribution of radioactivity after intravenous administration (Table 6)
Assay type: in vivo, Sprague Dawley rats
STATED_CONDITIONS: muscle, rat, i.v., 60 min, mean (range) of 4 rats, read-out: Muscle, mean % injected dose/gram
READOUT_LABEL: tissue uptake at 1 h (%ID/g)
Field: numeric (%ID/g). Do not append units.

Request: Assign tissue uptake at 1 h to the following record: "Ic1ccc([C@@H]2CN3CCC[C@@H]3c3ccccc32)cc1"
Response: 0.26

---

PROTOCOL_NOTES: Tissue distribution of radioactivity after intravenous administration (Table 6)
Type: in vivo, Sprague Dawley rats
STATED_CONDITIONS: brain, rat, i.v., 120 min, mean (range) of 4 rats, read-out: Brain, mean % injected dose/gram
READOUT_LABEL: tissue uptake at 2 h (%ID/g)
Field: numeric (%ID/g). Do not append units.

Request: Assign tissue uptake at 2 h to the following record: "Ic1ccc([C@@H]2CN3CCC[C@@H]3c3ccccc32)cc1"
Response: 0.43

---

PROTOCOL_NOTES: Tissue distribution of radioactivity after intravenous administration (Table 6)
Format: in vivo, Sprague Dawley rats
STATED_CONDITIONS: blood, rat, i.v., 60 min, mean (range) of 4 rats, read-out: Blood, mean % injected dose/gram
READOUT_LABEL: tissue uptake at 1 h (%ID/g)
Field: numeric (%ID/g). Do not append units.

Request: Assign tissue uptake at 1 h to the following record: "Ic1ccc([C@@H]2CN3CCC[C@@H]3c3ccccc32)cc1"
Response: 0.3
